test system: K4 kissing-loop RNA reporter; experiment: apparent KD of K4 kissing-loop reporter; higher = weaker reporter binding; details: Eterna round: R107; input ligand: FMN 200 uM;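 also: bound reporter read as fluorescence of individual clusters on recovered sequencing chips by microscopy, with normalized cluster intensities fitted with a binding model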
measurementLabel: apparent KD of K4 kissing-loop reporter (nM)

sequenceinput="CUGGGUUGACGAAAAGUCAACAAAAGAGAAGGAGCGCACGAAAGUGCAGGUAGGUCGCUCAUCCAGUGAUGUUGGAUCAUCCAGA [#SwitchBubble 16 #K4Late]" measurementlabel="apparent KD of K4 kissing-loop reporter" recordedresult=345
sequenceinput="AGUACAAUGGCGGCCGCCACUCAAUGGCAGAUCAAAGAUCUGUAUCACUCAGUGAUGUUGAGUGAGAGGACCGGGCCUUUGUACA [Omei KL Tryp B SS B v9]" measurementlabel="apparent KD of K4 kissing-loop reporter" recordedresult=604
sequenceinput="UGACUGGACUGAAGGAGCGUUGAAGGAGCGUAAGGAGUGAUGUUCCAUACAGGUAGGUCGCAGCAGGUAGGUCGCAGUCUAGUCU [ArgBS 26 #DoubleAptamer #SwitchBubble]" measurementlabel="apparent KD of K4 kissing-loop reporter" recordedresult=204
sequenceinput="UCCGUUGCGGCGGCCGCCACUGACUUAUUGAUUAGGUUGCCAGUGAUGUUGGCCACCGGUCAAUACAGGACCGGGCCAUAGCGGG [Retive]" measurementlabel="apparent KD of K4 kissing-loop reporter" recordedresult=160
sequenceinput=UGAUAGGACAGAAGGAGCGGUAGUGAUGUUACCAAAAGGUUAAGGUGUCAAAAGACACCCUGCCAGGUAGGUCGCUGUCCUAUCU measurementlabel="apparent KD of K4 kissing-loop reporter" recordedresult=117
sequenceinput="ACGUGAAGCGACUCCUAGUUAAACCGGGAAGGAGCGCGGAUAACCGCAGGUAGGUCGCCCGGAAGCCGGACCAGUGAUGUUGGUC [Exclusion Arginine A Gf 26]" measurementlabel="apparent KD of K4 kissing-loop reporter" recordedresult=263
sequenceinput="UGACUGGACUGAAGGAGCGUUGAAGGAGCGUAGGCAGUGAUGUUGCCUACAGGUAGGUCGCAGCAGGUAGGUCGCAGUCUAGUCU [ArgBS 27 #DoubleAptamer #SwitchBubble]" measurementlabel="apparent KD of K4 kissing-loop reporter" recordedresult=132
sequenceinput="AUGUUGAGCGGAAGGAGCGGCUGAGCCAGUGAUGUUGGUUAAUCCAAGUGAUGUUGGAAAAGCCAGGUAGGUCGCCGCUUUACGU [whbob_SS_Arginine_B_2t144]" measurementlabel="apparent KD of K4 kissing-loop reporter" recordedresult=1010
sequenceinput="GUGCGCGCGGCGGCCGCCACUCGCAUGAGAGUGAUGUUCUCGGGACUGACGCAAGUCAGUCAUGUGAGGACCGGGCCGGGCUGCG [#2 Same State - Tryptophan B Attempt #12 (HarryS)]" measurementlabel="apparent KD of K4 kissing-loop reporter" recordedresult=1060
sequenceinput="GCGCGUCAUGUCAGCGGUGACACUGUCGAUACCAGCGCCGCAAGGCGCCCUUGGCAGCGACGCGCUGGAGUGAUGUUCCAGCGUG [#2 Exclusion - Theophylline A Attempt #14 (HarryS)]" measurementlabel="apparent KD of K4 kissing-loop reporter" recordedresult=154
sequenceinput="UAUGGCGAGGGCCGCAUAUCAUUAAACCAGAAGGAUAUAUGUUACUAUAGAAGGUCUGCCGCUGCGAGUGAUGUUUGGAGUGAUC [theeternabot_sameState_KL_FMN_A_3]" measurementlabel="apparent KD of K4 kissing-loop reporter" recordedresult=326
